# assay-comment: NCI Yeast Anticancer Drug Screen. Data for the mec2-1 strain (AID 157)
# test-context: S. cerevisiae mec2-1 strain, at 5.0 µM (retest, dose inferred, filed as 0.5)
The panel holds about 79,000 compounds, 15% with a hit somewhere; the sample as a whole holds those more often. Activity calls are given as the source filed them. No stated cut-off is given here; in the data, active means growth inhibition above about 70%; inactive means the rest.
Labels: 1 = active, 0 = inactive

molecule | group-label
Cc1ccc(Cl)cc1NC(=O)OCCN(C)C(=O)Nc1cc(Cl)ccc1C | 0
O=C(O)CNC(=S)Nc1ccccc1 | 0
CC1=C(SCc2ccccc2)C(=O)c2ccccc2C1=O | 1
COc1ccc(N=CN(C)C)c(C)c1 | 0
CCOC(=O)COc1c(OC)cc(C2C3=C(COC3=O)Oc3cc4c(cc32)OCO4)cc1OC (configuration not stated) | 0
CCOC1(c2cccc([N+](=O)[O-])c2)c2ccccc2Oc2ccccc21 | 0
O=C1C(=O)c2ccccc2C(O)=C1C(C1=C(O)c2ccccc2C(=O)C1=O)c1ccc(Cl)cc1 | 0
CCCC(O)C1CC(C(C)C)CCC1C (configuration not stated) | 0
NC(=O)C(=O)NNc1ccccc1 | 0
Oc1ccc(-c2nc(-c3ccc(F)cc3)c(-c3ccc4ccccc4n3)[nH]2)cc1 | 0
Cn1c(-c2ccc(/C=N\N3CCN(/N=C/c4ccc(-c5c[n+]6ccccc6n5C)cc4)CC3)cc2)c[n+]2ccccc12 | 0
O=C(O)c1cc2ccc(Cl)cc2c(O)c1C1=CCCCC1 | 0

###

# assay-comment: NCI Yeast Anticancer Drug Screen. Data for the CLN2oe strain (AID 163);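 further: 0% = growth of vehicle-only control cultures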
# test-context: S. cerevisiae CLN2oe strain, at 33.0 µM, active compounds read high
Compounds without any hit were thinned out: in the full panel of roughly 79,000, 15% have a hit.
// label = fulfilled if growth inhibition is not less than 10%, otherwise not fulfilled

compound | group-label
O=C1N=C2SC=C(NC(=S)Nc3ccccc3)N2NC12c1ccccc1-c1ccccc12 | fulfilled
CN(C)CCNC(=O)c1cccc2c1Oc1c(cccc1[N+](=O)[O-])O2 | not fulfilled
CC(C)OC(=O)c1ccc(CCc2cc(O)c(Br)cc2O)cc1 | fulfilled
Oc1ccc2ccccc2c1CCc1c(O)ccc2ccccc12 | fulfilled
C=C1C(=O)OC2CC1C(OC(C)=O)C/C(C)=C/CC/C(C)=C\CCC2(C)O (stereo not drawn) | fulfilled
O=[N+]([O-])c1cccc2nc3ccccc3c(NCCCn3ccnc3[N+](=O)[O-])c12 | fulfilled
CNC(=O)OCc1c(COC(=O)NC)c(-c2ccc(Cl)cc2)n2c1CCC2 | not fulfilled
O=C(C[n+]1ccc2ccccc2c1)c1ccc2ccccc2c1 | fulfilled

###

# assay-comment: NCI Yeast Anticancer Drug Screen. Data for the mec2-1 strain (AID 157)
# test-context: S. cerevisiae mec2-1 strain, at 5.0 µM (retest, dose inferred, filed as 0.5), active compounds read high
This is part of a sample that, as a whole, favours compounds with a hit. Of some 79,000 tested, about 15% had one in any assay.

compound | growth inhibition [%]
O=C1C=C(c2ccccc2)OC1(c1ccccc1)N1CCOCC1 (centres undefined) | -12
N#CC1=C(N)N(/N=C/c2ccccc2)C(c2ccccc2)C1(C#N)C#N (centres undefined) | 4
COC(=O)NC1C(C)OC(OC2C/C=C(/C)C3C=CC4C(OC5CC(OC6CC(O)C(OC7CC(O)C(OC)C(C)O7)C(C)O6)C(O)C(C)O5)C(C)CC(C)C4C3(C)/C(O)=C3\C(=O)OC4(CC(C)C(CO)=CC4/C=C\2C)C3=O)CC1(C)[N+](=O)[O-] (centres undefined) | 9
CCOc1ccc(NC(=O)C2=C(C)NC(C)=C(C(=O)Nc3ccc(OCC)cc3)C2c2cccc([N+](=O)[O-])c2)cc1 | 0
CCc1nc2ccc(NCCN(C)C)c3c(=O)c4ccccc4n1c23 | 4
COc1cc(/C=C2\NC(=O)N(/C=C3\C(=O)Oc4ccccc4C3=O)C2=O)ccc1O | -4
CC[n+]1oc(C(=O)c2ccc(Cl)cc2)c(-c2ccccc2)c1-c1ccccc1.[Cl][Fe]([Cl])([Cl])[Cl] | 22
CCCCN(CCCC)C(=O)/C=C/c1ccccc1 | -1
CC1SC2(C(=O)Nc3ccc(Cl)cc32)N(c2ccc(Cl)cc2)C1=O (centres undefined) | 11

###

# assay-comment: NCI Yeast Anticancer Drug Screen. Data for the bub3 strain (AID 167)
# test-context: S. cerevisiae bub3 mutant strain, at 33.0 µM, active compounds read high
The panel holds about 79,000 compounds, 15% with a hit somewhere; the sample as a whole holds those more often.
The entries below are paired with their reported growth inhibition.

molecule | growth inhibition (%)
O=c1ssc(=Nc2ccccc2)n1-c1ccccc1 | 6
O=[n+]1c2ccccc2n([O-])c2cc(Br)ccc21 | 99
O=C(/C=C(/c1ccccc1)N1CCCCC1)c1ccccc1 | 19
CCCC/C([O-])=C1/C(=O)N(c2ccccc2)N=C1C.CCCC/C([O-])=C1/C(=O)N(c2ccccc2)N=C1C.[Cu+2] | -2
CNCCCNc1c2ccccc2nc2cccc([N+](=O)[O-])c12 | 98
O=C1NC(=O)c2ccc([N+](=O)[O-])c3cccc1c23 | 55
CCOC(=O)C(Br)C(Br)c1ccccc1Cl (centres undefined) | 98
CC1OC(O[C@H]2/C=C/C=C/C=C/C=C/C=C/C=C/C=C/[C@H](C)[C@@H](O)[C@@H](C)[C@H](C)OC(=O)C[C@H](O)C[C@H](O)CC[C@@H](O)[C@H](O)C[C@H](O)C[C@]3(O)C[C@H](O)[C@@H](C(=O)O)[C@H](C2)O3)C(O)C(N)C1O (some centres undefined) | 98
CC(=O)OCC1OC2OC(=O)NC2C(OC(C)=O)C1OC(C)=O (centres undefined) | 1
COc1cc(/C=C2\NC(=O)N(/C=C3\C(=O)Oc4ccccc4C3=O)C2=O)ccc1O | 69
OCc1ccccc1Cc1ccccc1 | 1
COc1cc(/C=C2\CCC/C(=C\c3ccc(O)c(OC)c3)C2=O)ccc1O | -4
CC(C)OC(=O)c1ccc(CCc2cc(O)c(Br)cc2O)cc1 | 98
CCCCc1ccc(-n2c(C)c(COC(=O)NC)c(COC(=O)NC)c2C)cc1 | 99

###

The entries below are paired with their reported growth inhibition.
# assay-comment: NCI Yeast Anticancer Drug Screen. Data for the wt2 strain (AID 169);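 further: 0% = growth of vehicle-treated yeast cultures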
# test-context: S. cerevisiae wt2 strain growth inhibition; at 100.0 µM; active compounds read high
The panel holds about 79,000 compounds, 15% with a hit somewhere; the sample as a whole holds those more often.

mol | growth inhibition, %
CCc1c(Cl)c(C)cc(O)c1Cl | 92
O=C1N=C2SC=C(NC(=S)Nc3ccccc3)N2NC12c1ccccc1-c1ccccc12 | 90
Cn1c(-c2ccc(/C=N\N3CCN(/N=C/c4ccc(-c5c[n+]6ccccc6n5C)cc4)CC3)cc2)c[n+]2ccccc12 | 92
CS(=O)(=O)OCCN(CCOS(C)(=O)=O)c1ccc(C=Nc2ccc(-c3csc(COc4ccccc4)n3)cc2)cc1 | 91

###

The entries below are paired with their reported growth inhibition.
# assay-comment: NCI Yeast Anticancer Drug Screen. Data for the rad52 strain (AID 147);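 further: 0% = growth of vehicle-treated control cultures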
# test-context: S. cerevisiae rad52 mutant growth inhibition; at 11.0 µM; active compounds read high
This is part of a sample that, as a whole, favours compounds with a hit. Of some 79,000 tested, about 15% had one in any assay.

molecule | growth inhibition [%]
CCCCc1ccc(-n2c(C)c(COC(=O)NC)c(COC(=O)NC)c2C)cc1 | 5
C=C1C(=O)OC2CC1C(OC(C)=O)C/C(C)=C/CC/C(C)=C\CCC2(C)O (stereo not drawn) | 15
O=c1ccc2ccccc2c2ccccc12 | 52
N#CC(C#N)=NNc1ccc(S(=O)(=O)O)cc1 | 4
CS(=O)(=O)SCc1ccc([N+](=O)[O-])cc1 | 90
CC(=O)Nc1ccc2c(c1)Cc1cc(N=C3C=CC(=O)O3)ccc1-2 | 85
OCC(CO)C(c1cccc2ccccc12)c1cccc2ccccc12 | 98
Cc1cc(C)nc(NS(=O)(=O)c2ccc(Nc3c4ccccc4nc4c(C(=O)NCCO)cccc34)cc2)n1 | 2
COc1cccc2c1C(=O)c1c(O)c3c(c(O)c1C2=O)C[C@@](O)(C(C)=O)C[C@@H]3OC1CC(OC(C)=O)C(OC(C)=O)C(C)O1 (stereo partly drawn) | 37
CCOC(=O)C(Br)C(Br)c1ccccc1Cl (stereo not drawn) | 83
CCCCC(CC)C(=O)[O][Sn]([CH2]CCC)([CH2]CCC)[O]C(=O)C(CC)CCCC (stereo not drawn) | 47
O=C1C=C(Cl)C(=O)C(c2ccc(Cl)cc2)=C1 | 11
Cc1nc2c(Br)cc(Br)cc2c(=O)n1-c1ccccc1NC1OCC(O)C(O)C1O (stereo not drawn) | 25
Nc1ccc(F)cc1S | -11
CC(=O)Nc1ccc2c(c1)-c1ccccc1C2=O | 10
Cc1cc(C(C)(C)C)c(OCCCN2CCOCC2)c(C(C)(C)C)c1 | -14
Cc1ccc([N+]2=NC(c3ccccc3)=NN(c3ccccc3)C2)cc1 | 19
COC(=O)CCC(NC(=S)N/N=C(\C)c1ccccn1)C(=O)OC (stereo not drawn) | 1
O=c1[nH]c(-c2ccccc2)nc2c1sc1nc3ccccc3n12 | -23
CC[n+]1oc(C(=O)c2ccc(Cl)cc2)c(-c2ccccc2)c1-c1ccccc1.[Cl][Fe]([Cl])([Cl])[Cl] | 32
Oc1ccc2c(c1)C(O)CCCC2 (stereo not drawn) | 25
CC12C(=O)OC(=O)C(c3ccccc31)c1ccccc12 | -12
Cc1ccc2nc(-c3cccc([N+](=O)[O-])c3)oc(=O)c2c1 | 1
COc1ccc(/C=C/c2sc3ccccc3[n+]2CCCCI)cc1OC | -2
CCN(CC)CCOc1cc(C)c2cc(Cc3ccccc3)ccc2n1 | 2
O=c1[nH]c2ccc(Cl)cc2o1 | -11
c1ccc2[nH]c(-c3cscn3)nc2c1 | -3
CC(C)(C)[Si](C)(C)OCC1CCC(n2cnc3c(NC(=O)c4ccccc4)ncnc32)O1 (stereo not drawn) | -2
CC(=O)OCC(C)Cc1cc2c(cc1Br)OCO2 (stereo not drawn) | -8
O=C(NCCCNCCN1C(=O)c2cccc3cc([N+](=O)[O-])cc(c23)C1=O)c1cc(-c2ccccc2)nc2ccccc12 | 6
CC(=O)Nc1ccc(/C=C/[N+](=O)[O-])cc1 | 43
O=C(O)CNC(=S)Nc1ccccc1 | -22
O=C1C=C(N2CCN(c3ccccn3)CC2)C(=O)c2c(O)ccc(O)c21 | 19
